Assay: Leishmania major promastigote growth inhibition, primary screen (AID 1063);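 further: promastigotes grown with compound for 44 hours at 28 °C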
Conditions: Leishmania major promastigotes, resazurin fluorescence viability; at 10 µM
In all, about 200,000 compounds went through this assay and about 18,000 (9%) were called active. No stated cut-off is given here; in the data, active means inhibition above about 50%; inactive means the rest. What follows is part of a selection rich in actives, with near analogues and random picks from the rest.
Lab note: assign the record to one of 1.0 = active, 0.0 = inactive

Sample answers from the record:
CCC(C)NC(=O)Cn1nc(C(F)(F)F)c2c1CCC2 (stereo unspecified) ... 0.0
CC(C)n1c(SCC(=O)Nc2ccccc2N2CCCCC2)nc2c1c(=O)n(C)c(=O)n2C ... 1.0
CCOc1cc2[nH]c(=O)n(Cc3ccc(C(=O)NCCCN4CCCC4=O)cc3)c(=O)c2cc1OCC ... 0.0

Problem: # lookup: test call for CCN(CC)S(=O)(=O)c1ccc(OC(C)C)c(N)c1
Solution: 0.0

----------
Assay: Leishmania major promastigote growth inhibition, primary screen (AID 1063);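 further: promastigotes grown with compound for 44 hours at 28 °C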
Conditions: Leishmania major promastigotes, resazurin fluorescence viability; at 10 µM; active compounds read high
Screen size: about 200,000 compounds; about 18,000 (9%) were called active. The list comes from a sample in which actives are over-represented; it also holds close analogues and randomly drawn compounds.
Documented inhibition across a set of compounds

COc1ccc(Cc2nnc(NC(=O)c3cc(OC)c(OC)c(OC)c3)s2)cc1OC ... -2.97% (inactive)

According to the records, this compound N#CCSc1nn(-c2ccc(F)cc2)c(=S)s1 displays inhibition of -4.75% (inactive)

----------
Assay: Leishmania major promastigote growth inhibition, primary screen (AID 1063);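 further: promastigotes grown with compound for 44 hours at 28 °C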
Details: Leishmania major promastigotes, resazurin fluorescence viability; at 10 µM; active compounds read high
The whole screen tested about 200,000 compounds, of which about 18,000 (9%) were called active. The sample holds actives, similar compounds and a random draw of the others, so the mix is not that of the screen.
QUANTITY KIND: inhibition (%)
Express the result in % but write the number alone.

N/C(=N\OC(=O)CC1CCCCC1)c1ccccc1 ... 57.8
COc1ccc(/C(N)=N/OC(=O)Cc2ccccc2)cc1 ... -6.43

According to the records, this molecule N/C(=N\OC(=O)CCC1CCCCC1)c1ccccn1 displays inhibition of -4.7

According to the records, this molecule COc1ccc(/C=C/C2=CC(C)(C)NC(=S)N2)c(OC)c1 displays inhibition of 1.29

According to the records, this molecule O=C(CCCn1c(=O)c2sccc2n(CC(=O)NCC2CCCO2)c1=O)NCc1ccco1 (stereo unspecified) displays inhibition of -8.29

According to the records, this molecule COc1ccc(C2CC(c3cccs3)=NN2c2ccc(F)cc2)cc1OC (stereo unspecified) displays inhibition of 15.6

----------
Test: Leishmania major promastigote growth inhibition, primary screen (AID 1063);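 further: promastigotes grown with compound for 44 hours at 28 °C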
Conditions: Leishmania major promastigotes, resazurin fluorescence viability; at 10 µM
The campaign covered roughly 200,000 compounds. About 18,000 (9%) were called active. No stated cut-off is given here; in the data, active means inhibition above about 50%; inactive means the rest. The sample holds actives, similar compounds and a random draw of the others, so the mix is not that of the screen.
Lab note: assign the record to one of 1 (yes) (active), 0 (no) (inactive)

Sample answers from the record:
CCOC(=O)N1CCN(Cc2nc(N)nc(Nc3ccc(C)cc3)n2)CC1 ... 0 (no)
N=C1C(c2nc3ccccc3s2)=C(O)CN1NC(=O)c1ccc([N+](=O)[O-])cc1 ... 0 (no)

Problem: # lookup: test call for Cc1ccc(OCC(=O)NNC(=S)NCc2ccccc2)cc1
Solution: 0 (no)

Problem: # lookup: test call for COc1ccc(C)cc1NC(=O)C(Sc1ccccc1)c1ccccc1 (stereo not drawn)
Solution: 0 (no)

Problem: # lookup: test call for O=c1c(Cl)c(NC2CC2)cnn1-c1ccccc1
Solution: 0 (no)

Problem: # lookup: test call for O=C(COC(=O)c1ccc(F)cc1)Nc1nc2ccc([N+](=O)[O-])cc2s1
Solution: 0 (no)

Problem: # lookup: test call for CC(C)OCCCNC(=O)c1ccc(C2SCC(=O)N2Cc2ccco2)cc1 (stereo not drawn)
Solution: 0 (no)

Problem: # lookup: test call for Cc1cc(C#N)c(SCC(N)=O)nc1-c1ccc(F)cc1
Solution: 0 (no)

Problem: # lookup: test call for Cc1cc(N2CCN(S(=O)(=O)c3ccc(C)c(C)c3)CC2)c2ccccc2n1
Solution: 1 (yes)

Problem: # lookup: test call for COc1ccccc1Nc1nc(N)nc(CN(C)C2CCCCC2)n1
Solution: 0 (no)

Problem: # lookup: test call for CCOc1ccc(-n2c(O)c(/C=N/Nc3nnc(C)c(=O)[nH]3)c3ccccc3c2=O)cc1
Solution: 0 (no)

Problem: # lookup: test call for Cc1ccccc1Nc1nc(N)nc(CN2CCN(c3ccccn3)CC2)n1
Solution: 0 (no)

Problem: # lookup: test call for COCCn1c(C)cc(C2=NNC(=Nc3ccc(F)cc3)SC2)c1C
Solution: 0 (no)

Problem: # lookup: test call for O=C(Nc1nc2ccc([N+](=O)[O-])cc2s1)c1ccc(S(=O)(=O)N2CCCc3ccccc32)cc1
Solution: 1 (yes)

Problem: # lookup: test call for CC1=C(C)C(=O)OC(C(C)C2CCC3C4CC=C5CC(OC6OC(COC7OC(CO)C(O)C(O)C7O)C(O)C(O)C6O)CC(O)C5(C)C4CCC23C)C1 (stereo not drawn)
Solution: 0 (no)

Problem: # lookup: test call for CCOC(=O)C1=C(C)N=C2c3ccccc3C(=O)C2C1c1ccc(Br)cc1 (stereo not drawn)
Solution: 1 (yes)

Cited source for all entries: PubChem BioAssay AID1063
